experiment: basal RPMI8226 viability, no added stimulus, profiling panel, cell-based, calcein-AM fluorescence, 48 h, PK04 Diversity Set (AID 1166); conditions: RPMI8226 myeloma viability, higher = more signal;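 also: cells grown under basal conditions without added stimulus; test concentration not given here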
Entries and their z-score values follow.
MEASUREMENT_LABEL: z-score

INSERT INTO assay_data (compound, measured_number) VALUES
  ('O=C1OCCC=C[C@H]2OC34C=CCN(Cn5nnc6ccccc65)C(=O)[C@H]3N(CCCCCCO)C(=O)[C@@H]4C12 (stereo not given in full)', -0.264),
  ('Cn1cccc1C(O)C1C=CC2C(=O)NC(=O)C2N1Nc1ccc(Cl)cc1Cl (stereo not given)', -2.24),
  ('CO[C@H]1O[C@H](CO)[C@@H](OC(=O)Nc2ccccc2-c2ccccc2)[C@H](OC(=O)Nc2ccc3c(c2)OCO3)[C@H]1OC(=O)Nc1ccc2c(c1)OCO2', -2.75),
  ('C=C(COC)C(=O)CC[C@@H](OC(=O)c1cccnc1)c1ccc(OCCO)cc1', -1.29),
  ('C=CCC(OC(C)=O)[C@@H]1[C@@H](N(Cc2cc3ccccc3o2)C(=O)Cc2ccc(F)cc2)c2cc(OCCCO)ccc2N1C(=O)c1ccc2ccccc2c1 (stereo not given in full)', 0.0905),
  ('CC(C)C[C@@H]1NC(=O)[C@@H]2C[C@H](C(=O)NCCCCCN)[C@H](c3ccc(O)cc3)N2C1=O', 0.286),
  ('C[N+](C)(C)CCCCCCNC(=O)[C@H]1C[C@H]2C(=O)NCC(=O)N2[C@H]1c1ccc(O)cc1', -0.121),
  ('COc1ccc(-c2cc3c(c(CCc4ccccc4)n2)[Si](C(C)C)(C(C)C)OC3)cn1', -2.05),
  ('C=CC[C@@]1(C(=O)N2CCOCC2)N=C(c2ccc(OCCCO)cc2)O[C@@H]1c1ccccc1CN=[N+]=[N-]', -0.697),
  ('Cc1cc(C)c(C(O)C2C=CC3C(=O)N(c4ccccc4)C(=O)C3N2Nc2ccc(C(C)C)cc2)c(C)c1 (stereo not given)', -0.792),
  ('Cc1cc(C)cc(N2C(=O)CSC2c2cccc([N+](=O)[O-])c2)c1 (stereo not given)', 0.699),
  ('CN(C)CCCNC(=O)[C@@]1(C)c2ccccc2C(=O)N(Cc2ccccc2)[C@H]1c1ccc(CO)cc1', 0.3),
  ('CN1C(=O)C2C=CC(C(O)c3ccc(F)cc3)N(Nc3ccccc3)C2C1=O (stereo not given)', 0.196),
  ('O=C1O[C@@H](c2ccccc2)[C@@H](c2ccccc2)N2[C@@H](c3ccc(O)cc3)[C@]3(C(=O)Nc4ccc(C#CC5(O)CCCCCC5)cc43)[C@@H](C(=O)NC[C@H](O)c3ccccc3)[C@H]12', -1.31),
  ('OCC1CC(c2ccccc2)=NO1 (stereo not given)', -0.676),
  ('CC(C)N1C(=O)c2ccccc2[C@@H](C(=O)NC2CC2)[C@@H]1c1ccc(CO)cc1', 0.282),
  ('CC(=O)c1ccc(C(O)C2C=CC3C(=O)N(c4ccccc4)C(=O)C3N2Nc2ccc(C#N)cc2)cc1 (stereo not given)', -0.821),
  ('CCCCCCc1nc(C2CC2)cc2c1[Si](C(C)C)(C(C)C)O[C@H]2c1ccccc1', -0.517),
  ('CO[C@H]1O[C@H](CO)[C@@H](OC(=O)Nc2ccc3c(c2)OCO3)[C@H](OC(=O)c2cc3ccccc3[nH]2)[C@H]1OC(=O)c1cc2ccccc2[nH]1', 1.11),
  ('COC(=O)c1ccc([C@H](NC(=O)c2ccco2)[C@]2(C)C[C@H]2C2CCCCC2)cc1', -3.28),
  ('O=C1NC(=O)C2C1C=CC(C(O)c1ccco1)N2Nc1ccccn1 (stereo not given)', -0.529),
  ('COCCOC(=O)N1C(=O)[C@@]2(c3cc(C#Cc4ccc(OC)cc4)ccc31)[C@H](c1ccc(O)cc1)N1[C@H](c3ccccc3)[C@H](c3ccccc3)OC(=O)[C@H]1[C@@H]2C(=O)N1CCCCCCC1', -1.29),
  ('O=C(CS)NCCCCCCNC(=O)[C@H]1C[C@H]2C(=O)N[C@@H](Cc3ccccc3)C(=O)N2[C@H]1c1ccc(O)cc1', 0.388),
  ('O=C1O[C@@H](c2ccccc2)[C@@H](c2ccccc2)N2[C@@H](c3ccc(OCCO)cc3)[C@]3(C(=O)Nc4ccccc43)[C@@H](C(=O)O)[C@H]12', -0.146),
  ('C#CCN([C@@H](Cc1ccc(O)cc1)C(=O)OC)[C@@H](/C=C/C1CC1)[C@H](O)Cc1ccccc1', -4.06),
  ('CC1CC/C=C\[C@H]2OC34C=CCN(c5ccc(Cl)cc5)C(=O)[C@H]3N(CCCCCO)C(=O)[C@]4(C)C2C(=O)O1 (stereo not given in full)', -0.381),
  ('COCCOC(=O)N1C(=O)[C@@]2(c3cc(C#Cc4ccc(OC)cc4)ccc31)[C@H](c1ccccc1OCCO)N1[C@H](c3ccccc3)[C@H](c3ccccc3)OC(=O)[C@H]1[C@@H]2C(=O)N1CCCCCCC1', -0.584),
  ('COc1cc(OC)c(C(O)C2C=CC3C(=O)N(C)C(=O)C3N2NC(=O)OC(C)(C)C)cc1Br (stereo not given)', 0.442),
  ('COC(=O)[C@@]1(Cc2ccccc2)[C@H]2c3cc(C(=O)N(C)C)n(CCN4CNCC4=O)c3C[C@H]2CN1C(=O)c1ccccc1', -0.002),
  ('COCCOC(=O)N1C(=O)[C@@]2(c3cc(C#CCCO)ccc31)[C@H](C(=O)Nc1nc3ccccc3s1)[C@H]1C(=O)O[C@H](c3ccccc3)[C@H](c3ccccc3)N1[C@@H]2c1ccccc1OCCO', -0.333);

----------
target: Torsin-1A (Homo sapiens) (UniProt O14656); experiment: torsin A binders from cell lysate, primary screen, small-molecule microarray, wild-type, 635/667 nm (AID 1149); details: COS7 hTOR1A-WT lysate, 635 nm fluorescence, higher = more signal
Sequence (O14656 whole entry, looked up): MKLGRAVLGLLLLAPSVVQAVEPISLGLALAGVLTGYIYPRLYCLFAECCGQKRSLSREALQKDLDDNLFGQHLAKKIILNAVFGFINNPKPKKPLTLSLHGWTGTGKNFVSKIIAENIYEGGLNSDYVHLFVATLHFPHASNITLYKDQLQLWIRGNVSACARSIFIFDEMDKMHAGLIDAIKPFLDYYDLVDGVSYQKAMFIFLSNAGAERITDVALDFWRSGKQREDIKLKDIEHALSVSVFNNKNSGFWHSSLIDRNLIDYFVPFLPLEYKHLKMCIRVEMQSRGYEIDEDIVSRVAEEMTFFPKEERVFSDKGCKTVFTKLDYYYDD
Entries and their composite z-score values follow.
MEASUREMENT_LABEL: composite z-score

INSERT INTO results (compound, result) VALUES
  ('Cc1ccc(S[C@]2(C(=O)NCC(F)(F)F)CC(=O)N(Cc3ccccc3C(F)(F)F)[C@@H]2c2ccc(CO)cc2I)cc1', -2.42),
  ('[N-]=[N+]=NCc1ccccc1[C@@H]1OC(c2ccc(OCCCO)cc2)=N[C@]1(CCS(=O)(=O)c1ccccc1)C(=O)NCC(O)CO (stereo partly specified)', 1.05),
  ('Cc1ccc(S[C@]2(C(=O)NCC(F)(F)F)CC(=O)N(Cc3ccccc3)[C@@H]2c2ccc(CO)cc2I)cc1', -0.565),
  ('Cc1ccc(S[C@]2(C(=O)NCC(F)(F)F)CC(=O)N(C3CCCCC3)[C@@H]2c2ccc(CO)cc2I)cc1', -0.357),
  ('COCC1=C2[C@@H](CCc3ccccc3)OB(O)C[C@@H]2[C@@H]2C(=O)C=CC(=O)[C@@H]2C1', 0.246),
  ('CCC(CC)C(O)C1C=CC2C(=O)N(c3ccccc3)C(=O)C2N1Nc1ccc(C(C)C)cc1 (stereo unspecified)', 0.393),
  ('O=C1c2ccccc2[C@](Cc2ccccc2I)(C(=O)NCC(F)(F)F)[C@H](c2ccc(CO)cc2)N1C1CCCCC1', 0.365),
  ('COC(=O)[C@@]1(Cc2ccc(OC)cc2)[C@H]2c3cc(C(=O)N(C)C)n(C[C@H](O)CO)c3C[C@H]2CN1C(=O)c1ccccc1', 0.219),
  ('COc1ccc([Si](C)(C)[C@@H]2[C@@H](CC(=O)N(CCO)Cc3ccccc3)O[C@]3(C(=O)N(c4ccccc4)c4ccccc43)[C@H]2C)cc1', 0.555),
  ('CC(C)C(=C=CC[C@H](O)c1ccc(OCCO)cc1)C[C@H](O)c1ccccn1', 0.743),
  ('O=C1OCCC=C[C@H]2OC34C=CCN(Cn5nnc6ccccc65)C(=O)[C@H]3N(CCCCCCO)C(=O)[C@@H]4C12 (stereo partly specified)', -0.103),
  ('CC1CC/C=C\[C@H]2OC34C=CCN(C(C)C)C(=O)[C@H]3N(CCCCCCO)C(=O)[C@@H]4C2C(=O)O1 (stereo partly specified)', -1.83),
  ('CC(C)OC(=O)C=C1C[C@@H](c2ccc(C(F)(F)F)cc2)O[C@@H](c2ccc(C(F)(F)F)cc2)O1', 0.827),
  ('COC(=O)[C@@]1(Cc2ccccc2)[C@H]2c3cc(C(=O)N(C)C)n(CCN4CNCC4=O)c3C[C@H]2CN1C(=O)c1ccccc1', 3.83),
  ('COc1ccc(-c2nc(-c3ccccc3)c3c(c2C)CO[Si]3(C(C)C)C(C)C)cn1', 0.14),
  ('CN(C)CCCCNC(=O)[C@@H]1C[C@@H]2C(=O)N[C@@H](Cc3ccccc3)C(=O)N2[C@@H]1c1cccc(OCCO)c1', 0.75),
  ('CN1C(=O)C2C=CC(C(O)c3cccc4ccccc34)N(N3CCCCC3)C2C1=O (stereo unspecified)', 0.613),
  ('OCCCC1=CC(c2ccc(CN3CCCC3)cc2)N(Cc2sc3ccccc3c2Cl)CC1 (stereo unspecified)', 0.598),
  ('CCOc1cc(C(O)C2C=CC3C(=O)N(C)C(=O)C3N2Nc2ccccc2)ccc1O (stereo unspecified)', 0.526),
  ('COc1ccc(-c2cc3c(c(CCc4ccccc4)n2)[Si](C(C)C)(C(C)C)OC3)cn1', 0.188),
  ('COC(=O)[C@@]1(Cc2ccc(OC)cc2)[C@H]2c3cc(C(=O)N4CCCC4)n(Cc4cccc5ccccc45)c3C[C@H]2CN1C(=O)c1ccccc1', -0.25),
  ('O=C1O[C@@H](c2ccccc2)[C@@H](c2ccccc2)N2[C@@H](c3ccc(O)cc3)[C@]3(C(=O)Nc4ccc(C#CC5=CCCCC5)cc43)[C@@H](C(=O)NC[C@H](O)c3ccccc3)[C@H]12', 0.675),
  ('C=C(COC)C(=O)CC[C@@H](OC(=O)c1cccnc1)c1ccc(OCCO)cc1', 0.889),
  ('O=C1NC(=O)C2C1C=CC(C(O)c1ccco1)N2Nc1ccccn1 (stereo unspecified)', 0.322),
  ('COC(=O)c1ccc([C@H](NC(=O)c2ccco2)[C@]2(C)C[C@H]2C2CCCCC2)cc1', -2.21),
  ('COC(=O)[C@@]1(Cc2ccc(F)cc2)[C@H]2c3cc(C(=O)N(C)C)n(Cc4cc(F)cc5c4OCOC5)c3C[C@H]2CN1C(=O)c1ccccc1', 0.141),
  ('COc1ccc([Si](C)(C)[C@H]2[C@H](CC(=O)N(CCO)Cc3ccccc3)O[C@@]3(C(=O)N(Cc4cccc(N5CCOC5=O)c4)c4ccccc43)[C@@H]2C)cc1', 0.898),
  ('CN(C)CCCNC(=O)[C@@]1(C)c2ccccc2C(=O)N(Cc2ccccc2)[C@H]1c1ccc(CO)cc1', -0.334),
  ('C[C@H]1NC(=O)[C@@]23C(=O)N[C@@H](Cc4ccccc4)C2[C@H](C)[C@@]2(C)O[C@H]2C3/C=C/C/C=C\CNC(=O)[C@H](Cc2ccccc2)NC1=O (stereo partly specified)', -0.2),
  ('CCOC(=O)C1=C[C@@H](c2ccccc2)N(S(=O)(=O)c2ccc(C)cc2)[C@H]1c1ccccc1Cl', 0.888),
  ('C#CCN([C@@H](Cc1ccc(O)cc1)C(=O)OC)[C@@H](/C=C/C1CC1)[C@H](O)Cc1ccccc1', -0.541);
